// data source = patent US7838685B2

# protocol_details: Phase transition temperature by differential scanning calorimeter
# Format: physicochemical
# stated_conditions: dispersed in pure water, lipid concentration 1 wt %, DSC 2° C./min, 20 to 80° C.
measurement_type: Tc, temperature of the gel to liquid-crystalline phase transition (°C)

• CCCCCCCCCCCCCCCCOC(=O)CCC(NC(=O)C(N)CCCNC(=N)N)C(=O)OCCCCCCCCCCCCCCCC (stereo not shown) [Compound 4] = 44.8
• CCCCCCCCCCCCCCCCOC(=O)CCC(NC(=O)C(N)CCCCN)C(=O)OCCCCCCCCCCCCCCCC (stereo not shown) [Compound 2] = 41.2
• CCCCCCCCCCCCCCCCOC(=O)CCC(NC(=O)C(N)Cc1c[nH]cn1)C(=O)OCCCCCCCCCCCCCCCC (stereo not shown) [Compound 3] = 43.7
• CCCCCCCCCCCCCCCCOC(=O)CCC(N)C(=O)OCCCCCCCCCCCCCCCC (stereo not shown) [Compound 1] = 49.4
